Below, each entry is listed with its recorded remaining activity at 20 µM.
molecular target: human 11β-HSD2 (Homo sapiens, UniProt P80365); construct: expressed in transfected cells; assay: 11β-HSD2 oxidase activity (cortisol to cortisone) in lysates of stably transfected HEK-293 cells; type: biochemical; details: 20 μM compound, 25 nM cortisol, HEK-293 cell lysates; read-out: 11β-HSD2 % of control
Test readout: remaining activity at 20 µM (%)

# Compound, Readout unit, Value reported
data = [
    ("COc1ccc(C(=O)NCc2cccc(Cl)c2Cl)c(C(F)(F)F)c1", "%", 145),
    ("COc1ccc(OC)c(C2C(C(=O)c3ccc(Br)cc3)=C(O)C(=O)N2CCCn2ccnc2)c1 (centres unmarked)", "%", 78),
    ("COCCN1C(=O)C(O)=C(C(=O)c2ccc(OC)c(C)c2)C1c1ccc(C)cc1 (centres unmarked)", "%", 121),
    ("COc1ccc(C(=O)C2=C(O)C(=O)N(CCCn3ccnc3)C2c2ccccc2)cc1Cl (centres unmarked)", "%", 122),
    ("Cc1cccc(C)c1C1C(SCC(=O)Nc2c(Cl)cccc2Cl)=NN=C1c1cccc([S+]([O-])N(C)C)c1 (centres unmarked)", "%", 121),
    ("CCN(CC)S(=O)(=O)c1ccc(Cl)c(C(=O)Nc2nc3ccc(S(C)(=O)=O)cc3s2)c1", "%", 132),
    ("COc1cccc(/C=N/NC(=O)CSCc2ccccc2C)c1OC", "%", 133),
    ("COC(=O)[C@@]1(C)CC[C@]2(C)CC[C@]3(C)C(=CC(=O)[C@@H]4[C@@]5(C)CC[C@H](Oc6ccccc6C(=O)O)C(C)(C)[C@@H]5CC[C@]43C)[C@@H]2C1", "%", 14.4),
]

---

molecular target: human 11β-HSD1 (Homo sapiens, UniProt P28845); construct: expressed in transfected cells; assay: 11β-HSD1 activity in intact transfected HEK-293 cells; type: cell-based; details: text b14; read-out: IC50 for 11β-HSD1 determined in intact transfected HEK-293 cells
Sequence (P28845 whole entry): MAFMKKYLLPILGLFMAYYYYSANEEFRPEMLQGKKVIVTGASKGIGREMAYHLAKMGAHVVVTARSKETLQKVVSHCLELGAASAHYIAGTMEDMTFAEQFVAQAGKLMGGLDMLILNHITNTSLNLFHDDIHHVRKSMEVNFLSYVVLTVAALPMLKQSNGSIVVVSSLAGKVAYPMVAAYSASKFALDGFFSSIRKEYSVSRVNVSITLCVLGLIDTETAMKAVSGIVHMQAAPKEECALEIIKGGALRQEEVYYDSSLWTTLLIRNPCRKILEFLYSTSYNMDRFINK
Test readout: IC50 (nM)

# Compound, Test readout, Readout unit, Value reported
rows = [
    ("CC(=O)OC1CC[C@]2(C)C3=C(C(=O)C[C@H]2C1(C)C)[C@]1(C)CCC(C(C)CCC(=O)O)[C@@]1(C)CC3=O (stereo partly shown)", "IC50", "nM", 410),
]

---

Biological target: human 11β-HSD2 (Homo sapiens, UniProt P80365)
Construct: expressed in transfected cells
Sequence (P80365 1-405): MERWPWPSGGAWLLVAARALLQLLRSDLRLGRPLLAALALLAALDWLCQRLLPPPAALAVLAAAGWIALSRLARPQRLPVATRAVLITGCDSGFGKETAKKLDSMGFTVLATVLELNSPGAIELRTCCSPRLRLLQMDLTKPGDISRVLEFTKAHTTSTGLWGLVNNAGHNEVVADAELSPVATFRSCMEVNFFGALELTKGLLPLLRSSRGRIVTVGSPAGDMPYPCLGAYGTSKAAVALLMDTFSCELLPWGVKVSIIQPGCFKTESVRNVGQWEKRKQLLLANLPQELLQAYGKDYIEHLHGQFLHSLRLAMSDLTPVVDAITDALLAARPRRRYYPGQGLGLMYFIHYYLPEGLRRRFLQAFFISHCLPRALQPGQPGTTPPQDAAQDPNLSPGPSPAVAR
Assay: 11β-HSD2 oxidase activity (cortisol to cortisone) in lysates of stably transfected HEK-293 cells
Format: biochemical
Settings: 20 μM compound, 25 nM cortisol, HEK-293 cell lysates; read-out: 11β-HSD2 % of control

# Compound, remaining activity at 20 µM
measured = [
    ("CCOc1ccc(C2c3cc(OCC)c(OCC)cc3CC(=O)N2c2ccc(C(=O)O)cc2)cc1OCC (stereo not drawn)", "120%"),
    ("COc1cc(/C=N/NC(=O)CSc2nc3ccccc3n2Cc2ccc(C)cc2)cc(OC)c1OC(C)=O", "137%"),
    ("CCN(CC)S(=O)(=O)c1ccc(OC)c(-c2nnc(-c3cc(S(=O)(=O)N(CC)CC)ccc3OC)o2)c1", "115%"),
    ("Cc1nn(CC(=O)Nc2sc(C)c(C)c2C(N)=O)c(C)c1[N+](=O)[O-]", "95%"),
    ("COCCC1C(=O)C(O)=C(C(=O)c2ccc(OC)c(C)c2)C1c1ccc(Cl)cc1Cl (stereo not drawn)", "77.4%"),
    ("CC(=O)OC1CC[C@]2(C)C3=C(C(=O)C[C@H]2C1(C)C)[C@]1(C)CCC(C(C)CCC(=O)O)[C@@]1(C)CC3=O (stereo partly drawn)", "27.4%"),
]
